- ASSAYED TARGET: Cytochrome P450 2D6 (Homo sapiens)
- ASSAY SUMMARY: Cytochrome panel assay with activity outcomes
- MEASUREMENT SETUP: recombinant CYP, pro-luciferin dealkylation, luminescence, p450-cyp2d6; series mostly up to 57.1 µM
Screen size: about 16,000 compounds; about 2,600 (16%) were called active. Inconclusive results (about 20%) are left out. Calls come from the whole dose curve; as a rule, active = well fitted curve in the direction sought with a large enough effect; inconclusive = small, poorly fitted or top-dose-only effect, or effect the other way; inactive = no such curve, though single readings can be large or run the other way. Many of the other results were omitted from the sample, so actives are more common in it than they were.
Please answer using one outcome listed in active, inactive

CC(=O)NBr    inactive

# outcome recorded in this test, key = COC(=O)Nc1nc2ccc(C(=O)c3cccs3)cc2[nH]1
inactive

# iterate: Fc1ccc(CCNCc2cccc(Cl)c2)cc1
active

# iterate: C(=NC12CN3CN(CN(C3)C1)C2)c1cccs1
inactive
